Target: LiTryS (Leishmania infantum trypanothione synthetase) (Leishmania infantum, UniProt A4I2Z3)
Sequence (A4I2Z3 1-652): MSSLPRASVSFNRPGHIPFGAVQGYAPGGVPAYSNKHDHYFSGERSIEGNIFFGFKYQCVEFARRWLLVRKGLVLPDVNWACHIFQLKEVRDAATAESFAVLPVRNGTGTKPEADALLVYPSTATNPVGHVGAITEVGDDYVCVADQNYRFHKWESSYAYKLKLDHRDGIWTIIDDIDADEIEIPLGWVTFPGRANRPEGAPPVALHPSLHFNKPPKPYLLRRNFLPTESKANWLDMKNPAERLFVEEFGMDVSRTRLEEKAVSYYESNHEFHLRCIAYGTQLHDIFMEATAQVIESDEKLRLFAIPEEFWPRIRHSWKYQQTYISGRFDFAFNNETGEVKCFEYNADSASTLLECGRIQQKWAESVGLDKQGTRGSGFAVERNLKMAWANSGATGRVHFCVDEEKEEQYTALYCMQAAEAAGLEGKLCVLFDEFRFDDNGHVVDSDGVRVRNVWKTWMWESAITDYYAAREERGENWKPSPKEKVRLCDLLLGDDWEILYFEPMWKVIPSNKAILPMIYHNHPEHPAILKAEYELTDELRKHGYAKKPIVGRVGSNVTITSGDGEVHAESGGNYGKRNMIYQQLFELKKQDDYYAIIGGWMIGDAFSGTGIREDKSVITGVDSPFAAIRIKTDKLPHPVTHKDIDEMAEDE
Test: TryS activity end-point assay
Type: biochemical
Details: 30 µM; NA = not active (enzyme activity > 95%)
measureName: % TryS inhibition at 30 µM, LiTryS (%)

> print(dat)
                            molecularstring                         measurename  valuemeasured
1  CCOC(=O)CN1C(=O)Cc2c([nH]c3ccc(Br)cc23)-c2ccc(Cl)cc21  % TryS inhibition at 30 µM, LiTryS           36.2
2  O=C(CN1C(=O)Cc2c([nH]c3ccc(Br)cc23)-c2ccc(Cl)cc21)N1CCCCC1  % TryS inhibition at 30 µM, LiTryS           38.6
3  CC(C)(C)OC(=O)NCCNC(=O)CN1C(=O)Cc2c([nH]c3ccc(Br)cc23)-c2ccc(Cl)cc21  % TryS inhibition at 30 µM, LiTryS           36.7

Source of measurements: paper PMC7717452
